System: MDA-MB-468 breast
Assay: NCI-60 one-dose screen, 48 h
Conditions: 10 µM unless noted
Experimental: Growth inhibition of the MDA-MB-468 human Breast tumor cell line is measured as a screen for anti-cancer activity. Cells are grown in 96 well plates and exposed to the test compound for 48 hours. Compounds are tested at a single concentration, which is 10^-5 M for most compounds. The reported endpoint is percent growth (GI% or GIPRCNT), where numbers from 0 - 100% represent growth inhibition, and numbers from -100% - 0 represent cell death. […]
The panel holds about 83,000 compounds, 20% with a hit somewhere; the sample as a whole holds those more often. Active and inactive are the calls of the source. Rule for the calls: active = growth percent below 10; inactive = the rest.
// one of active, inactive, no free text

Solved cases (2 shown):
Compound | Group
COc1cc2c(c(OC)c1OC)-c1ccc(NNC(=S)N(Cc3cccc(C[N+](Cc4cccc(CNC56CC7CC(CC(C7)C5)C6)c4)(Cc4cccc(CNC56CC7CC(CC(C7)C5)C6)c4)Cc4cccc(CN(C(=S)NNc5ccc6c(cc5=O)[C@@H](NC(C)=O)CCc5cc(OC)c(OC)c(OC)c5-6)C56CC7CC(CC(C7)C5)C6)c4)c3)C34CC5CC(CC(C5)C3)C4)c(=O)cc1[C@@H](NC(C)=O)CC2 (stereo partly drawn) | active
CCCCCCCCCCCCCCn1cc(C2=C(c3coc4ccc(OC)cc34)C(=O)NC2=O)c2ccccc21 | inactive

Any idea what this test logged for Cc1ccc(C(=O)NCCCNc2nccc(-n3ccc4cccnc43)n2)cc1 ?
inactive

###

tested on: MDA-MB-468 breast; experiment: NCI-60 one-dose screen, 48 h; conditions: 10 µM unless noted
Compounds without any hit were thinned out: in the full panel of roughly 83,000, 20% have a hit. Calls of active or inactive are those of the source. Rule for the calls: active = growth percent below 10; inactive = the rest.
Classes to choose from: active, inactive

These solved cases illustrate the format of a correct answer.
Molecule | Group
COc1c(B(O)O)cccc1-c1nc2ccc3[nH]ncc3c2c2c1CCCC2 | inactive
O=C(/C=C/c1ccccc1)c1c[nH]c2ccccc2c1=O | active
Cc1csc(-c2nnc(Nc3ccc(Oc4ncccc4-c4ccnc(N)n4)cc3)c3ccccc23)c1 | inactive
CCOC(=O)c1[nH]c(=O)c2c(C)nc(-c3ccccc3)cc2c1O | inactive

Tell me the assay call for CCOC(=O)Cn1c(O)c(N=Nc2ccc(S(N)(=O)=O)cc2)c2cc(Br)ccc21 please.
inactive

Lab log entry: COc1ccc(NC(=O)CCn2cnc3c(cc(-c4ccccc4)n3-c3ccccc3)c2=O)cc1 — outcome as called in the assay?
inactive

Fill in: this test's call for O=C1OCC2=C1C(c1cccc([N+](=O)[O-])c1)c1cc3c(cc1N2CCO)CCC3 (configuration not stated) is ___
active

Write down the call the test reported for this molecule. Item: COc1cc(-c2nn(C(C)(C)C)cc2-c2ccnc(NCCCNS(=O)(=O)c3cccc(F)c3)n2)ccc1Cl
inactive

Each molecule tested received a call. Report the one for CCCCN1C(=O)CC(SC2CC(=O)N(CCCC)C2=O)C1=O (configuration not stated) .
inactive

###

system: HT29 colon; test: NCI-60 one-dose screen, 48 h (100 = growth as untreated, 0 = no growth, -100 = all killed); conditions: 10 µM
About 83,000 compounds went through this panel and 20% of them were active in at least one assay; those are over-represented in the sample as a whole.
MET means recorded growth is 50% or above; NOT MET means it is below 50%.

Use these answered entries as a reference point.
Molecule | Test Target | Group
COc1ccc(Cn2cc(C#N)c(N)c2C(C)=O)c(OC)c1 | HT29 colon | MET
COc1cccc(O)c1/C=C1\SCc2cc3c(OC)cccc3[o+]c21 | HT29 colon | MET
C#C[C@]1(O)CC[C@H]2[C@@H]3CC=C4c5sc(Nc6cc(C)cc(C)n6)nc5CC[C@]4(C)[C@H]3CC[C@@]21C | HT29 colon | NOT MET
Cc1ccc2sc3c(c2c1)Oc1nc[nH]c(=O)c1C3c1cccc(F)c1 (stereo not given) | HT29 colon | MET
COc1ccc(C2c3sc4ccc(C)cc4c3Oc3nc(N)nc(N)c32)cc1 (stereo not given) | HT29 colon | MET

Confirm if growth reported for the molecule O=C(c1ccc(F)cc1)C(c1c[nH]c2ccccc12)c1c[nH]c2ccccc12 is 50% or above.
NOT MET

I'd appreciate it if you could say whether O=C1S/C(=C\c2ccc([N+](=O)[O-])cc2)C(=O)N1CCN1CCCCC1 has growth at least equal to 50%.
MET

Would you say CCOC(=O)c1ccc(NC(=O)CSC(CC(=O)c2sc(Nc3ccccn3)nc2C)c2ccccc2F)cc1 (stereo not given) shows growth at minimum 50%?
NOT MET

Evaluate O=C1NC(=S)S/C1=C\c1cn(-c2ccccc2)nc1-c1ccc([N+](=O)[O-])cc1 : growth at minimum 50%?
NOT MET

Could you verify whether the entry COc1cc(-c2nc3ccc(C)cc3[nH]2)ccc1OCc1nnc(-c2ccccc2Br)o1 shows growth of no less than 50%?
NOT MET

Hi, just wondering whether O=C(CSc1nc2ccccc2c(=O)n1-c1ccc(Cl)cc1)Nc1ccc(-c2nc3ccccc3[nH]2)cc1 shows growth of 50% or higher.
NOT MET

Assess whether reported growth for COc1cc(C2CC(c3ccc(Oc4ccc(Cl)cc4)cc3)=NN2c2nc(-c3ccc(Cl)cc3)c(C#N)c(N3CCOCC3)n2)cc(OC)c1OC (stereo not given) sits at 50% or higher.
MET

Please tell me: is the molecule Cc1ccc2c(c1)C(=O)/C(=C/c1ccc([N+](=O)[O-])cc1)S2 at or over 50% in terms of growth?
MET

Answer whether growth of Cc1ccc(S(=O)(=O)N2CCN(S(=O)(=O)c3oc(-c4ccccc4)nc3C#N)CC2)cc1 is greater than or equal to 50%.
MET

###

system: MDA-MB-468 breast; assay: NCI-60 one-dose screen, 48 h (100 = growth as untreated, 0 = no growth, -100 = all killed); conditions: 10 µM unless noted
This is part of a sample that, as a whole, favours compounds with a hit. Of some 83,000 tested, about 20% had one in any assay.
So I've got a bunch of molecules here, and I need their growth values.
Answers are plain numbers, in %.

Chemical String | Quantity Name | Test Result
O=C(CSc1nc2sc3c(c2c(=O)n1-c1ccccc1)CCCCC3)N/N=C/c1cccc([N+](=O)[O-])c1 | growth | 19.2
COc1cc2nccc(Oc3ccc(NC(=O)C4(C(=O)Nc5c(F)cc(F)cc5F)CC4)cc3)c2cc1Oc1ccc(N)cn1 | growth | 33.3
Clc1ccc(N2CCN(CCCN3CCN(c4cccc(Cl)c4)CC3)CC2)cc1 | growth | 23.5
Oc1cccc(-c2nc(-c3n[nH]c(=S)n3-c3ccccc3)cc3c2[nH]c2ccccc23)c1 | growth | 9.85
O=C(NCCCNc1cc(-c2cn(-c3ccccc3)nc2-c2cccc(O)c2)ccn1)Nc1ccc(F)cc1 | growth | -19.4

Attention now shifts to the item below.
Write down growth measured for item CC(C)n1nc(C#Cc2cccc(NC(=O)c3cccc(C(F)(F)F)c3)c2)c2c(N)ncnc21
8.73

###

Tested on: MDA-MB-468 breast
Assay: NCI-60 one-dose screen, 48 h
Settings: 10 µM unless noted
Description: Growth inhibition of the MDA-MB-468 human Breast tumor cell line is measured as a screen for anti-cancer activity. Cells are grown in 96 well plates and exposed to the test compound for 48 hours. Compounds are tested at a single concentration, which is 10^-5 M for most compounds. The reported endpoint is percent growth (GI% or GIPRCNT), where numbers from 0 - 100% represent growth inhibition, and numbers from -100% - 0 represent cell death. […]
The panel holds about 83,000 compounds, 20% with a hit somewhere; the sample as a whole holds those more often. Active and inactive are the calls of the source. The calls were made as follows: active = growth percent below 10; inactive = the rest.
Your response should consist of one outcome taken from active, inactive

Molecule | Group
CCOC(=O)c1ccc(N(CCC(=O)O)C(C)=O)cc1 | inactive

Write down the call the test reported for this molecule. Item: O=C(CCc1nnc2sc(-c3ccc(Cl)cc3Cl)nn12)c1nc2ccccc2[nH]1
active

Called result for COc1cc(NCc2cn(-c3ccc(C(=O)O)cc3)nc2-c2ccc(C(=O)O)cc2)cc(OC)c1OC
inactive

Which result was noted for this molecule in the test: CCCCCCC/C=C/[C@H]1O[C@]2(O)C(=O)C=C3C[C@@H](O[C@@H]4O[C@H](CO)[C@@H](O)C(O)[C@@H]4O)C[C@@H]3[C@H]2C=C1C (stereo partly drawn)
active

Hi team, can someone confirm the assay call for CCCCCCCCCCCCCCC(C(=O)OCC)C(=O)OCC ?
inactive

GET /call?item= COc1ccc(C(=O)NC(=O)Nc2cc3c(cc2F)/C(=C/c2[nH]c(C)c(CCC(=O)O)c2C)C(=O)N3)c(F)c1 returns the recorded outcome of this test.
inactive

Test call for this molecule, please: CC1(C)CC[C@]2(C(=O)O)CC[C@]3(C)C(=CC[C@@H]4[C@@]5(C)CC[C@H](NOCCCN)C(C)(C)[C@@H]5CC[C@]43C)[C@@H]2C1
active

What is the recorded call for this molecule in the test? O=C1c2cc([N+](=O)[O-])ccc2-c2cc(Cl)c(NC(=O)C(F)(F)F)cc21
active

What was the test verdict on COc1cc(C2CC(c3ccc(C)cc3)=NN2C=O)ccc1Oc1ccnc2cc(Cl)ccc12 (stereo not drawn) ?
inactive

For COc1cc(NC(=O)c2cncnc2Nc2ccc3c(ccn3Cc3cccc(F)c3)c2)cc(OC)c1 , what call appears in the results of this test?
inactive

Per the records of this test, what outcome belongs to CCOc1cc2ncc(C#N)c(Nc3ccc(OCc4ccccn4)c(Cl)c3)c2cc1NC(=O)/C=C/CN(C)C ?
active

Which result was noted for this molecule in the test: COC(=O)Cc1nc(C#N)c(N(C)C)o1
inactive

Dear all, I need the recorded test outcome for COc1ccc(-c2csc(NC(=O)N3CCN(c4cc5c(cc4F)c(=O)c(C(=O)O)cn5C4CC4)CC3)n2)cc1 , thank you.
active

Returns: the outcome recorded for COc1cc(C(C)c2ccc3c(ccn3C)c2)cc(OC)c1OC (stereo not drawn) in this assay.
inactive

What call does the record list for COc1cccc(-c2nc3sccn3c2-c2ccnc(NCCCNS(=O)(=O)c3ccccc3)c2)c1 ?
active

Please state the recorded outcome for this molecule: O=C1Nc2cc(-c3ccc(NS(=O)(=O)c4ccccc4)cc3)ccc2/C1=C/c1ccc[nH]1
active
